Numbers sourced from PubChem BioAssay AID493092.

Test system: AML12 mouse hepatocytes, BODIPY lipid droplet imaging
Assay: inhibitors of hepatocyte lipid droplet formation, SAR follow-up, imaging, AML12 mouse hepatocytes, BODIPY staining (AID 493092)
Details: cells fed 100 µM oleate overnight
Active and inactive are the calls of the source.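 Rule for the calls: active = averaged IC50 for reducing per-cell lipid droplet stain intensity under a set limit; inactive = the rest.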
Field 'call' accepts t (active), f (inactive)

Reference set (3 entries):
O=C(CNC(=O)c1cccc(Br)c1)NCCCc1ccccc1 : f
COc1cccc(NC(=O)CCC(=O)Nc2cc(OC)c(NC(=O)c3cccs3)cc2OC)c1 : t
CCCc1ccc(-c2csc(NC(=O)Cc3cccs3)n2)cc1 : t

Query :: Which result was noted for this compound in the test: Cc1ccc(-c2c(C)nn3c(N4CCOCC4)cc(C)nc23)cc1
Result :: t

Query :: Which result was noted for this compound in the test: CCOc1ccc(CCNC(=O)CCc2nc(-c3ccc(OC)cc3)no2)cc1OCC
Result :: t

Query :: Which result was noted for this compound in the test: Cc1cc(N2CCOCC2)n2nc(C)c(-c3ccccc3)c2n1
Result :: t

====

System: AML12 mouse hepatocytes, BODIPY lipid droplet imaging
Experiment: inhibitors of hepatocyte lipid droplet formation, SAR follow-up, imaging, AML12 mouse hepatocytes, BODIPY staining (AID 493092);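 active = averaged IC50 for reducing per-cell lipid droplet stain intensity under a set limit; inactive = the rest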
Conditions: cells fed 100 µM oleate overnight
Field 'call' accepts class 1 = active, class 0 = inactive

CCOc1ccc(CCNC(=O)C2CC=CCC2C(=O)OC(C)C)cc1OCC (stereo not given) : class 1
COc1cc(NC(=O)c2cccs2)c(OC)cc1NC(=O)CCC(=O)Nc1cccc2ccccc12 : class 1

Query :: Which result was noted for this molecule in the test: CCCc1cc(N2CCOCC2)n2ncc(-c3ccccc3)c2n1
Result :: class 1

====

Test system: AML12 mouse hepatocytes, BODIPY lipid droplet imaging
Test: inhibitors of hepatocyte lipid droplet formation, SAR follow-up, imaging, AML12 mouse hepatocytes, BODIPY staining (AID 493092)
Settings: cells fed 100 µM oleate overnight
Active and inactive are the calls of the source.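 Rule for the calls: active = averaged IC50 for reducing per-cell lipid droplet stain intensity under a set limit; inactive = the rest.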
reported-endpoint: IC50

Solved entries (count: 10):
COc1cccc(CN(C)C(=O)CNC(=O)Cc2cccc3ccccc23)c1OC : > 32000 nM (inactive)
CCOc1ccccc1NC(=O)CCCNC(=O)Cn1cnc2sc(C)c(C)c2c1=O : 8670 nM (inactive)
CCOc1ccc(NC(=O)CCC(=O)Nc2cc(OC)c(NC(=O)c3cccs3)cc2OC)cc1 : 276 nM
COc1ccc(CCNC(=O)Nc2ccccc2C#N)cc1OC : > 32000 nM (inactive)
CC(=O)Nc1ccc(-c2csc(NC(=O)Cc3cccc(F)c3)n2)cc1 : 2710 nM
COc1ccc(C)cc1CN(C)C(=O)C(C)NC(=O)Cc1cccc2ccccc12 (stereo not drawn) : 1050 nM
CCOc1ccc(C(=O)OCC(=O)Nc2cc(C)on2)cc1OCC : 864 nM
CCOc1ccccc1NC(=O)CCC(=O)Nc1ccccc1OCC : 1540 nM
CCOc1ccc(CCNC(=O)CCC(=O)N2CCSc3ccccc32)cc1OCC : 81.7 nM
COc1cc(NC(=O)c2cccs2)c(OC)cc1NC(=O)CCC(=O)Nc1cccc2ncccc12 : 4500 nM

Hi there! I need IC50 for each item below, if you can.
1. CCOc1ccc(CCNC(=O)CN2CCN(Cc3ccccc3C)C2=O)cc1OCC
2. Cc1cc(C(=O)OC(C)C(=O)Nc2nc(-c3ccccc3)cs2)c(C)o1 (stereo not drawn)
3. Cc1cc(N2CCOCC2)n2ncc(-c3ccc(F)cc3)c2n1
4. CCCc1cc(N2CCOCC2)n2nc(C)c(-c3ccccc3)c2n1
5. CCOc1ccc(CN(C)C(=O)CNC(=O)c2ccc(Br)o2)cc1OC

Result ::
1. 555 nM
2. 428 nM
3. 2120 nM
4. 168 nM
5. 1830 nM

Hi there! I need IC50 for each item below, if you can.
1. Cc1sc(NC(=O)Cc2ccc3c(c2)OCO3)nc1-c1ccc2c(c1)CCN2C(=O)c1ccccc1F
2. CCOc1ccc(CCNC(=O)CN2C(=O)c3cccnc3Oc3ccc(C)cc32)cc1OCC
3. COc1ccc(C(=O)OC(C)C(=O)NC(C)CCc2ccccc2)cc1[N+](=O)[O-] (stereo not drawn)
4. CCOc1ccc(CCNC(=O)COC(=O)c2cc(OC)c(OC)c(OC)c2)cc1OCC
5. CCOc1ccc(CCNC(=O)CCc2nnc3ccc(N4CCCC4)nn23)cc1OCC
6. COc1ccc(C(=O)OC(C)C(=O)Nc2cc(C(F)(F)F)ccc2Cl)c(OC)c1OC (stereo not drawn)
7. CCOc1ccc(CCNC(=O)Nc2ccccc2C)cc1OCC
8. CCOc1ccc(CN(C)C(=O)CNC(=O)Cc2cccc3ccccc23)cc1

Result ::
> 32000 nM (inactive)
170 nM
261 nM
103 nM
922 nM
439 nM
826 nM
168 nM

Hi there! I need IC50 for each item below, if you can.
1. O=C(Cc1cccc2ccccc12)NCC(=O)N1CCc2ccccc2C1
2. CCOc1ccc(CCNC(=O)Cn2nc(C)c3c(C)n(-c4ccccc4)nc3c2=O)cc1OCC
3. CCOc1ccc(CCNC(=O)Cn2cccc2C(=O)c2ccccc2)cc1OCC
4. COc1ccc(CCNC(=O)Nc2cc(F)c(F)cc2Cl)cc1OC

Result ::
> 32000 nM (inactive)
336 nM
424 nM
> 32000 nM (inactive)

Hi there! I need IC50 for each item below, if you can.
1. CCOc1ccc(CCNC(=O)Nc2cccc(OC)c2)cc1OCC
2. CCOc1cc2c(cc1OCC)C(c1ccccc1)N(c1ccccc1)C(=O)C2 (stereo not drawn)
3. CCOc1ccc(C(=O)NCC(=O)NC(C)CCc2ccccc2)cc1OCC (stereo not drawn)
4. CCOc1ccc(CCNC(=O)CSc2cc(=O)n(CC)c3ccccc23)cc1OCC
5. COc1cc(NC(=O)c2cccs2)c(OC)cc1NC(=O)CCC(=O)Nc1c(C)cccc1C
6. CCc1ccccc1NC(=O)CCC(=O)Nc1cc(OC)c(NC(=O)c2cccs2)cc1OC

Result ::
1. 134 nM
2. 287 nM
3. 688 nM
4. 1260 nM
5. 2200 nM
6. 538 nM

Hi there! I need IC50 for each item below, if you can.
1. COc1ccc(Br)cc1CN(C)C(=O)CNC(=O)Cc1cccc2ccccc12
2. O=C(Nc1nc(-c2ccc(-c3ccccc3)cc2)cs1)C1CCCO1 (stereo not drawn)
3. CCOc1ccc(CCNC(=O)Cn2cccc2C(=O)c2ccccc2C)cc1OCC
4. Cc1cc(N2CCOCC2)n2ncc(-c3ccccc3)c2n1
5. CC(OC(=O)c1ccc(F)cc1)C(=O)Nc1nc(-c2cccc([N+](=O)[O-])c2)cs1 (stereo not drawn)
6. Cc1cc(N2CCOCC2)n2nc(C)c(-c3ccccc3Cl)c2n1
7. CN(Cc1ccc2c(c1)OCO2)C(=O)CNC(=O)Cc1cccc2ccccc12
8. COc1ccc(CCNC(=O)Nc2ccccc2C(F)(F)F)cc1OC

Result ::
1: 2080 nM; 2: 1100 nM; 3: 330 nM; 4: 3070 nM; 5: > 32000 nM (inactive); 6: 410 nM; 7: > 32000 nM (inactive); 8: > 32000 nM (inactive)

Hi there! I need IC50 for each item below, if you can.
1. COc1cc(OC)cc(C(=O)NCC(=O)NC(C)CCc2ccccc2)c1 (stereo not drawn)
2. COc1ccc(-c2csc(NC(=O)c3ccc(OCC(=O)N4CCOCC4)c(OC)c3)n2)cc1OC

Result ::
["> 32000 nM (inactive)", "1020 nM"]

====

Tested on: AML12 mouse hepatocytes, BODIPY lipid droplet imaging
Assay: inhibitors of hepatocyte lipid droplet formation, SAR follow-up, imaging, AML12 mouse hepatocytes, BODIPY staining (AID 493092)
Settings: cells fed 100 µM oleate overnight
Activity calls are given as the source filed them.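 How the source made its calls: active means averaged IC50 for reducing per-cell lipid droplet stain intensity under a set limit; inactive means the rest.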
Field 'call' accepts 1 for active, 0 for inactive

Reference set (4 entries):
COc1ccc(C(=O)OCC(=O)NC(C)CCc2ccccc2)c(OC)c1 (stereo not given) : 1
COc1ccc(CNC(=O)CN2C(=O)NC(C)(c3cccc4ccccc34)C2=O)cc1OC (stereo not given) : 1
Cc1ccc(-n2nc3c(=O)n(CC(=O)NC(C)CCc4ccccc4)nc(C)c3c2C)cc1 (stereo not given) : 1
CC(OC(=O)c1ccc(O)cc1)C(=O)Nc1nc(-c2cccc([N+](=O)[O-])c2)cs1 (stereo not given) : 0

Moving on to another compound below.
Query :: Which result was noted for this compound in the test: CCOc1ccc(CN(C)C(=O)CNC(=O)c2ccc3ccccc3c2)cc1OC
Result :: 1

====

Test system: AML12 mouse hepatocytes, BODIPY lipid droplet imaging
Test: inhibitors of hepatocyte lipid droplet formation, SAR follow-up, imaging, AML12 mouse hepatocytes, BODIPY staining (AID 493092)
Details: cells fed 100 µM oleate overnight
The source made the active and inactive calls.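 Rule for the calls: active = averaged IC50 for reducing per-cell lipid droplet stain intensity under a set limit; inactive = the rest.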
Field 'call' accepts YES for active, NO for inactive

COc1ccc(CCNC(=O)Nc2ccc(C(C)=O)cc2)cc1OC : NO
Cc1ccc(-c2cnn3c(N4CCOCC4)cc(C)nc23)cc1 : NO
COc1ccc(CCNC(=O)Nc2ccccc2Cl)cc1OC : NO

Query :: Which result was noted for this compound in the test: CCOc1ccc(CCNC(=O)CSc2cc(=O)n(C)c3cc(Cl)ccc23)cc1OCC
Result :: NO

Query :: Which result was noted for this compound in the test: CCOc1ccc(CCNC(=O)c2cc(-c3ccccc3)c(N3CCOCC3)s2)cc1OCC
Result :: YES

Query :: Which result was noted for this compound in the test: O=C(NCc1ccc2c(c1)OCO2)c1cc(-c2ccccc2)c(N2CCOCC2)s1
Result :: YES

Query :: Which result was noted for this compound in the test: CC(OC(=O)c1ccc(S(=O)(=O)C(F)F)cc1)C(=O)Nc1nc(-c2ccccc2)cs1 (configuration not stated)
Result :: NO

Query :: Which result was noted for this compound in the test: CCOc1ccc(C(=O)OCC(=O)Nc2nc(OC)cc(OC)n2)cc1OCC
Result :: YES
